Tested on: dengue virus type 2
ASSAY OVERVIEW: Inhibition of Dengue virus serotype 2 NS2B-NS3 protease using benzoyl-Nle-Lys-Arg-Arg-AMC as substrate assessed as remaining activity at 15 uM incubated for 3 mins followed by substrate addition by fluorescence spectrophotometric analysis relative to control
Structures can show the parent of a compound that is named as a salt. Residues, ends and D or L forms follow the SMILES beside them. *: point of attachment. pNA = O=[N+]([O-])c1ccc(N*)cc1; Boc = CC(C)(C)OC(=O)*; NHBn = c1ccc(CN*)cc1; Tfa = O=C(C(F)(F)F)*
MEASUREMENT NAME: Activity

{"COMPOUND": "CSCC[C@H](N)C(=O)N1CCC[C@H]1C(=O)Nc1ccc([N+](=O)[O-])cc1", "ASSAY VALUE": "31%"}
{"COMPOUND": "CSCC[C@H](N)C(=O)N1CCC[C@H]1C(=O)NCc1ccccc1 (H-Met-Pro-NHBn)", "ASSAY VALUE": "58%"}
{"COMPOUND": "CSCC[C@H](NC(=O)C(F)(F)F)C(=O)N1CCC[C@H]1C(=O)Nc1ccc([N+](=O)[O-])cc1 (Tfa-Met-Pro-pNA)", "ASSAY VALUE": "54%"}
{"COMPOUND": "CSCC[C@H](NC(=O)OC(C)(C)C)C(=O)N1CCC[C@H]1C(=O)Nc1ccc([N+](=O)[O-])cc1 (Boc-Met-Pro-pNA)", "ASSAY VALUE": "45%"}

----------
Test system: dengue virus type 2
ASSAY OVERVIEW: Inhibition of Dengue virus serotype 2 NS2B-NS3 protease using benzoyl-Nle-Lys-Arg-Arg-AMC as substrate assessed as remaining activity at 200 uM incubated for 3 mins followed by substrate addition by fluorescence spectrophotometric analysis relative to control
Residues, ends and D or L forms follow the SMILES beside them. *: point of attachment. pNA = O=[N+]([O-])c1ccc(N*)cc1; Boc = CC(C)(C)OC(=O)*; NHPh = c1ccc(N*)cc1
Each entry below carries its recorded Activity.
MEASUREMENT NAME: Activity (%)

{"MOLECULE": "CSCC[C@H](N)C(=O)N1CCC[C@H]1C(=O)NCc1ccc([N+](=O)[O-])cc1", "MEASURED ON": "dengue virus type 2", "ASSAY VALUE": 36}
{"MOLECULE": "N[C@@H](Cc1ccccc1)C(=O)N1CCC[C@H]1C(=O)Nc1ccc([N+](=O)[O-])cc1 (H-Phe-Pro-pNA)", "MEASURED ON": "dengue virus type 2", "ASSAY VALUE": 31}
{"MOLECULE": "CC(C)(C)OC(=O)N[C@@H](Cc1ccccc1)C(=O)N1CCC[C@H]1C(=O)Nc1ccc([N+](=O)[O-])cc1 (Boc-Phe-Pro-pNA)", "MEASURED ON": "dengue virus type 2", "ASSAY VALUE": 25}
{"MOLECULE": "CSCC[C@H](N)C(=O)N1CCC[C@H]1C(=O)Nc1ccccc1 (H-Met-Pro-NHPh)", "MEASURED ON": "dengue virus type 2", "ASSAY VALUE": 60}

----------
Each entry below carries its recorded pKi.
ASSAY OVERVIEW: Competitive inhibition of Dengue virus serotype 2 NS2B-NS3 protease using benzoyl-Nle-Lys-Arg-Arg-AMC as substrate by Dixon plot analysis
Set-up: species or system dengue virus type 2
pKi: −log10 of the molar value. Residues, ends and D or L forms follow the SMILES beside them. *: point of attachment. pNA = O=[N+]([O-])c1ccc(N*)cc1; Boc = CC(C)(C)OC(=O)*

{"COMPOUND": "CSCC[C@H](N)C(=O)N1CCC[C@H]1C(=O)Nc1ccc([N+](=O)[O-])cc1", "pKi": 5.31}
{"COMPOUND": "CSCC[C@H](NC(=O)OC(C)(C)C)C(=O)N1CCC[C@H]1C(=O)Nc1ccc([N+](=O)[O-])cc1 (Boc-Met-Pro-pNA)", "pKi": 4.98}
